The measured values listed here are drawn from ChEMBL document CHEMBL1201861.

- Test system: NCI-H2227;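 note: growth inhibition of the human cell line, read out with a cell viability assay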
- assay protocol: cells
- Format: functional, cell-based
- conditions used: Homo sapiens
- Description: SANGER: Inhibition of human NCI-H2227 cell growth in a cell viability assay.
recorded endpoint: IC50

[[record]]
query_smiles = "C=CCc1cccc(/C=N/NC(=O)CN2CCN(Cc3ccccc3)CC2)c1O"
system_tested = "NCI-H2227"
endpoint_value = "> 2560 nM"


Field: next compound
// returns reported IC50 for input C[C@]1(O)C[C@@H](c2nc(-c3ccc4ccc(-c5ccccc5)nc4c3)c3c(N)nccn32)C1 > 2560 nM

* * *

Items are presented alongside their recorded IC50.
- Test system: NCI-H2126;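 note: growth inhibition of the cancer cell line, determined with a cell viability readout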
- assay protocol: cells
- Type: functional, cell-based, Homo sapiens
- conditions used: Homo sapiens, NCI-H2126
- Description: SANGER: Inhibition of human NCI-H2126 cell growth in a cell viability assay.

Consider the reported IC50 for these compounds:
[[record]]
compound = "O=C(NOCC1CC1)c1ccc(F)c(F)c1Nc1ccc(I)cc1Cl"
system_tested = "NCI-H2126"
endpoint_value = "9.01 µM"

[[record]]
compound = "O=C1N=C(NCc2cccs2)S/C1=C\\c1ccc2ncccc2c1"
system_tested = "NCI-H2126"
endpoint_value = "> 5 µM"

[[record]]
compound = "CO[C@H]1C[C@@H]2CC[C@@H](C)[C@@](O)(O2)C(=O)C(=O)N2CCCC[C@H]2C(=O)O[C@H]([C@H](C)C[C@@H]2CC[C@@H](O)[C@H](OC)C2)CC(=O)[C@H](C)/C=C(\\C)[C@@H](O)[C@@H](OC)C(=O)[C@H](C)C[C@H](C)/C=C/C=C/C=C/1C"
system_tested = "NCI-H2126"
endpoint_value = "> 0.1 µM"

[[record]]
compound = "Cn1cc(C2=C(c3ccc(Cl)cc3Cl)C(=O)NC2=O)c2ccccc21"
system_tested = "NCI-H2126"
endpoint_value = "> 10 µM"

[[record]]
compound = "C=C1C(=O)O[C@@H]2C3O[C@]3(C)CC/C=C(\\C)CC[C@@H]12 (stereo partly drawn)"
system_tested = "NCI-H2126"
endpoint_value = "> 5 µM"

[[record]]
compound = "Cc1cc(Nc2cc(N3CCN(C)CC3)nc(Sc3ccc(NC(=O)C4CC4)cc3)n2)n[nH]1"
system_tested = "NCI-H2126"
endpoint_value = "> 2 µM"

[[record]]
compound = "COc1ccc(-c2ccc3c(N4CCOC[C@@H]4C)nc(N4CCOC[C@@H]4C)nc3n2)cc1CO"
system_tested = "NCI-H2126"
endpoint_value = "1.68 µM"


// returns reported IC50 for input COc1cc(F)c(F)c(Nc2ccc(I)cc2F)c1NS(=O)(=O)C1(CC(O)CO)CC1 (stereo not drawn) > 5 µM

* * *

Items are presented alongside their recorded IC50.
- System: MS-1;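 note: growth inhibition of MS-1 cells, read out by cell viability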
- assay protocol: cells
- Format: functional, cell-based
- conditions used: Homo sapiens
- Description: SANGER: Inhibition of human MS-1 cell growth in a cell viability assay.

Consider the reported IC50 for these molecules:
[[record]]
molecule = "COc1cc(F)c(F)c(Nc2ccc(I)cc2F)c1NS(=O)(=O)C1(CC(O)CO)CC1 (stereo unspecified)"
endpoint_value = "> 5 µM"

[[record]]
molecule = "CN1CCN(CCOc2cc(OC3CCOCC3)c3c(Nc4c(Cl)ccc5c4OCO5)ncnc3c2)CC1"
endpoint_value = "> 2 µM"

[[record]]
molecule = "O=C(/C=C/c1ccccc1)NC(NC(=S)Nc1cccc2cccnc12)C(Cl)(Cl)Cl (stereo unspecified)"
endpoint_value = "> 16 µM"

[[record]]
molecule = "O=C(c1cc(Cc2n[nH]c(=O)c3ccccc23)ccc1F)N1CCN(C(=O)C2CC2)CC1"
endpoint_value = "> 5 µM"

[[record]]
molecule = "O=c1cc(-c2cccc3c2Sc2ccccc2S3)oc(N2CCOCC2)c1"
endpoint_value = "> 10 µM"


Field: next molecule
// returns reported IC50 for input COc1ccc(-c2ccc3c(N4CCOC[C@@H]4C)nc(N4CCOC[C@@H]4C)nc3n2)cc1CO > 2 µM
